- test-target: Aβ1-40 fibril (Homo sapiens)
- assay-comment: other, fibril binding 3-point assay
Square brackets hold non-standard residues; d marks the D form. * marks the point of attachment. NHOH = ON*
measured-endpoint: Kd

## Task // query Kd value for entry Me-[dL][dV][dF][dF][dL]-{NHOH} [PPI-1800]
## Result ~4 nM
